target: PCAF Brd (Homo sapiens, UniProt Q92831); construct: Human bromodomains were cloned, expressed and purified as previously described; made in house; assay: Differential scanning fluorimetry (DSF), PCAF Brd; assay type: binding; conditions: compound concentration 10 μM
Measured ΔT m [°C] PCAF (DSF) by item
Enter the number, and then the unit.

A selection of reference data follows.
molecule	ΔT m [°C] PCAF (DSF)
COc1ccc([C@@H]([C@H](C)Nc2nn3c(C)nnc3c3ccccc23)N(C)C)cc1	10.3 °C
Cc1nnc2c3ccccc3c(NCCN3CCN(C)CC3)nn12	0.9 °C
Cc1nnc2c3ccccc3c(N[C@H]3CCCC[C@@H]3N(C)C)nn12	0.6 °C

Give the measured ΔT m [°C] PCAF (DSF) for FC(F)(F)c1nnc2c3ccccc3c(NCc3ccccc3)nn12
3.7 °C

Give the measured ΔT m [°C] PCAF (DSF) for CCN(CC)CC(C)Nc1nn2c(C)nnc2c2ccccc12 (centres unmarked)
0 °C

Give the measured ΔT m [°C] PCAF (DSF) for COC(=O)c1ccc([C@@H]([C@H](C)Nc2nn3c(C)nnc3c3ccccc23)N(C)C)cc1
9.6 °C

Give the measured ΔT m [°C] PCAF (DSF) for Cc1nnc2c3ccccc3c(NC(C)CN3CCC(C)CC3)nn12 (centres unmarked)
0 °C

Give the measured ΔT m [°C] PCAF (DSF) for Cc1nnc2c3ccccc3c(NCCN3CCOCC3)nn12
0.7 °C

Give the measured ΔT m [°C] PCAF (DSF) for Cc1nnc2c3ccccc3c(NCC3COCCN3C)nn12 (centres unmarked)
2.7 °C

----------
Target: GST-PCAFBRD (Homo sapiens)
Sequence (Q92831 723-827 limits assumed): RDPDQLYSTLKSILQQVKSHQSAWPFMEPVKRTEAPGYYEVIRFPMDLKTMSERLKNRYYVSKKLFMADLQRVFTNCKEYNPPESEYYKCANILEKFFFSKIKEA
measuredEndpoint: Ki (nM)
Write it as a number; the unit nM goes unstated.

Give the measured Ki for Cc1nnc2c3ccccc3c(N[C@@H](C)[C@H](c3ccccc3)N(C)C)nn12 [L‐45]
47

----------
Biological target: GCN5L2 (Homo sapiens)
Construct: made in house
Sequence (Q92830 728-832 limits assumed): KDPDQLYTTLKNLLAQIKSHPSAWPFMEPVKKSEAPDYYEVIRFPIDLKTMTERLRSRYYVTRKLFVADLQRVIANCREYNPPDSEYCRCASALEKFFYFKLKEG
Assay: Differential scanning fluorimetry (DSF), GCN5 (GCN5L2) Brd
Format: binding
Settings: compound 10 μM; read-out: GCN5L2 ΔTm (°C) (DSF)
Experimental: Protein Expression and Purification Human bromodomains were cloned, expressed and purified as previously described.[1] Differential Scanning Fluorimetry (DSF) Thermal melting points were recorded using an Mx3005p Real Time PCR Machine (Stratagene). Subject proteins were buffered in 10 mM HEPES at pH 7.5, 500 mM NaCl and assayed in a 96-well […] plate at a final concentration of 2 μM in 20 μL volume. […] fluorescence readings were taken at each interval. Data was analysed as previously described.[2] […]
Please note: ΔTm at 10 µM exactly at 1 °C is Not met. Only values below 1 °C get Met.

compound	answerLabel
Cc1nnc2c3ccccc3c(NC(C)CN3CCC(C)CC3)nn12 (stereo not shown)	Met
COC(=O)c1ccc([C@@H]([C@H](C)Nc2nn3c(C)nnc3c3ccccc23)N(C)C)cc1	Not met
Cc1ccc([C@@H]([C@H](C)Nc2nn3c(C)nnc3c3ccccc23)N(C)C)cc1 (relative stereo)	Not met
COc1ccc([C@@H]([C@H](C)Nc2nn3c(C)nnc3c3ccccc23)N(C)C)cc1	Not met
Cc1nnc2c3ccccc3c(N[C@H]3CCCN(Cc4ccccc4)C3)nn12	Met

Turning now to a further compound:
For this compound, is ΔTm at 10 µM lower than 1 °C? Cc1nnc2c3ccccc3c(NCC3CCCOC3)nn12 (stereo not shown)
Not met
